Target: CYP3A4 (Homo sapiens, UniProt P08684)
Construct: utilizes human liver microsomes together with isoform-specific clinical drug probes; from tissue; host or cells: human liver microsomes
Sequence (P08684 whole entry, canonical isoform): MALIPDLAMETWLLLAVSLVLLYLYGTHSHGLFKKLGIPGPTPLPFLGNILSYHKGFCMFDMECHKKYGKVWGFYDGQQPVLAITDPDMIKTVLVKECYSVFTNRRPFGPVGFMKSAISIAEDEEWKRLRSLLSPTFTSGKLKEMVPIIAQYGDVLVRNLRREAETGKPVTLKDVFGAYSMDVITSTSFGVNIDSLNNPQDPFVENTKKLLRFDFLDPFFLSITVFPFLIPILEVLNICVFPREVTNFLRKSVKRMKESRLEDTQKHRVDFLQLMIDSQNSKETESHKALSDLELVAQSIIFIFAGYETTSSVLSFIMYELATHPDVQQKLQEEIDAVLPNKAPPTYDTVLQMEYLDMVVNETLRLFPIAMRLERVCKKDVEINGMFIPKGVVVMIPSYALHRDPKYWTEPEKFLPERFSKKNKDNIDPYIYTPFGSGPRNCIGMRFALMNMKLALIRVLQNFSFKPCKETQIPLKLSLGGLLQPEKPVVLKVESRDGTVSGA
Experiment: High density DDI 3 μM cocktail screen in human liver microsomes, midazolam probe
Format: in vitro ADME
Settings: human, liver microsomes, probe midazolam, read-out: % inhibition 3A4 @ 3 μM
Listing of entries alongside the reported inhibition at 3 µM.
Reported Metric: inhibition at 3 µM (%)

1. COc1ccc([C@@H]2CN(c3ccc(=O)[nH]n3)C[C@H]2C(=O)N2CCCC(c3ccc(Cl)cc3)N(S(C)(=O)=O)CC2)c(F)c1 (single isomer, unassigned) [Example 113] ... 44.3
2. COC(=O)N1CCN(C(=O)[C@@H]2CN(c3cccnn3)C[C@H]2c2ccc(OC)cc2F)CCC1c1ccc(Cl)cc1 (mixture of isomers) [Example 95] ... 41.9
3. CC1(C(=O)N2CCN(C(=O)[C@@H]3CN(C(C)(C)C)C[C@H]3c3ccc(F)cc3F)CCC[C@H]2c2ccc(Cl)cc2)CC1 [Example 60] ... 44.9
4. COC(=O)N1CCN(C(=O)[C@@H]2CN(c3ccc(=O)n(C)n3)C[C@H]2c2ccc(OC)cc2F)CCC[C@H]1c1ccc(Cl)cc1 [Example 118] ... 48
5. COc1ccc([C@@H]2CN(C(C)(C)C)C[C@H]2C(=O)N2CCCC(c3ccc(Cl)cc3)N(S(C)(=O)=O)CC2)c(F)c1 (mixture of isomers) [Example 92] ... 33.5
6. CCCC(=O)N1CCN(C(=O)[C@@H]2CN(C(C)(C)C)C[C@H]2c2ccc(F)cc2F)CCCC1c1ccccc1 (mixture of isomers) [Example 104] ... 48

---

Here's a batch of compounds along with measured pKi for MC3 receptor (MC3R) (Homo sapiens, UniProt P41968).
pKi: −log10 of the molar value.
Reported Metric: pKi

1) COc1ccc([C@@H]2CN(c3cccnn3)C[C@H]2C(=O)N2CCC(c3ccc(Cl)cc3)N(C(C)=O)CC2)c(F)c1 (mixture of isomers) ... 5.31
2) COC(=O)N1CCN(C(=O)[C@@H]2CN(c3ccc(=O)[nH]n3)C[C@H]2c2ccc(OC)cc2F)CCC[C@@H]1c1ccc(Cl)cc1 ... 6.64
3) COc1ccc([C@@H]2CN(c3ccc(=O)[nH]n3)C[C@H]2C(=O)N2CCCC(c3ccc(Cl)cc3)N(S(C)(=O)=O)CC2)c(F)c1 (single isomer, unassigned) [Example 113] ... 5.89

---

Molecular target: MC4 receptor (Homo sapiens, UniProt P32245)
Sequence (P32245 whole entry): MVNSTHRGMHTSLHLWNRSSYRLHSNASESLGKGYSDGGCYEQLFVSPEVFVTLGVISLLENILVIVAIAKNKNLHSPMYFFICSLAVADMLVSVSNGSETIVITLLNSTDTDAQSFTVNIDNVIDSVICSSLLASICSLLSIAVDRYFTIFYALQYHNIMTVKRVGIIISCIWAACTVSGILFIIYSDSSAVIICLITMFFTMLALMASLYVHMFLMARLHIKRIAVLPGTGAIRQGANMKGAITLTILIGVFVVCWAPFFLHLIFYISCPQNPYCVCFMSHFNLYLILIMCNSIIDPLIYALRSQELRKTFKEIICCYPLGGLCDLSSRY
Assay: MC4 EC50 functional potency (protocol E of US2005/0176772 / WO 2005/077935)
Reported Metric: log10 of EC50 (log10 of the value in nM)

1. COC(=O)N1CCN(C(=O)[C@@H]2CN(c3cccnn3)C[C@H]2c2ccc(OC)cc2F)CCC1c1ccc(Cl)cc1 (mixture of isomers) [Example 95] ... 0.91
2. CC(C)(C)N1C[C@@H](C(=O)N2CCC[C@@H](c3ccc(Cl)cc3)N(C(=O)C3CCC3)CC2)[C@H](c2ccc(F)cc2F)C1 [Example 14] ... 1.13
3. CC(=O)N1CCN(C(=O)[C@@H]2CN(c3ccc4nncn4n3)C[C@H]2c2ccc(Cl)cn2)CCC[C@H]1c1ccc(Cl)cc1 [Example 6] ... 0.05
4. CC(=O)N1CCN(C(=O)[C@@H]2CN(c3ccc(=O)n(C)n3)C[C@H]2c2ccc(Cl)cn2)CCC[C@H]1c1ccc(Cl)cc1 [Example 36] ... 0.88
5. CC(=O)N1CCN(C(=O)[C@@H]2CN(c3ccc(C#N)nn3)C[C@H]2c2ccc(F)cc2F)CCC[C@H]1c1ccc(Cl)cc1 [Example 21] ... 0.97
6. COC(=O)N1CCN(C(=O)[C@@H]2CN(C(C)(C)C)C[C@H]2c2ccc(F)cc2F)CCC1c1ccc(F)cc1F (mixture of isomers) [Example 54] ... 1.65

---

Here's a batch of compounds along with measured Ki for MC4 receptor (MC4R) (Homo sapiens).
Reported Metric: Ki (nM)

1. CC(=O)N1CCN(C(=O)[C@@H]2CN(C(C)(C)C)C[C@H]2c2ccc(F)cc2F)CCC[C@H]1c1ccc(Cl)cc1 [Example 8] ... 1010
2. COC(=O)N1CCN(C(=O)[C@@H]2CN(c3ccc(=O)[nH]n3)C[C@H]2c2ccc(OC)cc2F)CCCC1c1ccc(Cl)cc1 (mixture of isomers) [Example 112] ... 17.4
3. CCCC(=O)N1CCN(C(=O)[C@@H]2CN(C(C)(C)C)C[C@H]2c2ccc(F)cc2F)CCCC1c1ccccc1 (mixture of isomers) [Example 104] ... 583
4. CS(=O)(=O)N1CCN(C(=O)[C@@H]2CN(c3ccc(C#N)nn3)C[C@H]2c2ccc(F)cc2F)CCCC1c1ccc(Cl)cc1 (mixture of isomers) [Example 76] ... 344
5. COC(=O)N1CCN(C(=O)[C@@H]2CN(C(=O)OC(C)(C)C)C[C@H]2c2ccc(F)cc2F)CCCC1c1ccccc1 (mixture of isomers) [Example 97] ... 1620
6. COC(=O)N1CCN(C(=O)[C@@H]2CN(C(C)(C)C)C[C@H]2c2ccc(F)cc2F)CCCC1c1ccc(Cl)cc1 (mixture of isomers) [Example 83] ... 1690
7. CC(C)(C)N1C[C@@H](C(=O)N2CCC[C@@H](c3ccc(Cl)cc3)N(C(=O)C3CCCC3)CC2)[C@H](c2ccc(F)cc2F)C1 [Example 17] ... 513
8. COc1ccc(C2CCCN(C(=O)[C@@H]3CN(c4ccc(C#N)nn4)C[C@H]3c3ccc(F)cc3F)CCN2C(C)=O)cc1 (mixture of isomers) [Example 1] ... 2090
9. CC1(C(=O)N2CCN(C(=O)[C@@H]3CN(C(C)(C)C)C[C@H]3c3ccc(F)cc3F)CCC[C@H]2c2ccc(Cl)cc2)CC1 [Example 60] ... 90.9
10. COC(=O)N1CCN(C(=O)[C@@H]2CN(C(C)(C)C)C[C@H]2c2ccc(OC)cc2F)CCC[C@H]1c1ccc(Cl)cc1 [Example 71] ... 1050
11. COCC(=O)N1CCN(C(=O)[C@@H]2CN(C(C)(C)C)C[C@H]2c2ccc(F)cc2F)CCC[C@H]1c1ccc(Cl)cc1 [Example 9] ... 1530
12. COC(=O)N1CCN(C(=O)[C@@H]2CN(c3ccc(C#N)nn3)C[C@H]2c2ccc(OC)cc2F)CCC[C@@H]1c1ccc(Cl)cc1 [Example 88] ... 24
13. COc1ccc([C@@H]2CN(c3ccc(=O)n(C)n3)C[C@H]2C(=O)N2CCCC(c3ccc(Cl)cc3)N(S(C)(=O)=O)CC2)c(F)c1 (single isomer, unassigned) [Example 117] ... 33.6
14. COC(=O)N1CCN(C(=O)[C@@H]2CN(C(C)(C)C)C[C@H]2c2ccc(F)cc2F)CCCC1c1ccccc1 (mixture of isomers) [Example 82] ... 5180

---

Target: MC4 receptor (Homo sapiens)
Assay: MC4 EC50 functional potency (protocol E of US2005/0176772 / WO 2005/077935)
pEC50: −log10 of the molar value.
Label rule met when pEC50 is at or above 8; anything below gets rule not met.

1. COCC(=O)N1CCN(C(=O)[C@@H]2CN(C(C)(C)C)C[C@H]2c2ccc(F)cc2F)CCC[C@H]1c1ccc(Cl)cc1 ... rule not met
2. COc1ccc([C@@H]2CN(c3ccc(=O)n(C)n3)C[C@H]2C(=O)N2CCC[C@@H](c3ccc(Cl)cc3)N(C(=O)C3CC3)CC2)c(F)c1 ... rule met
3. COC(=O)N1CCN(C(=O)[C@@H]2CN(c3ccc4nncn4n3)C[C@H]2c2ccc(Cl)cn2)CCC[C@@H]1c1ccc(Cl)cc1 ... rule met
4. CCC(=O)N1CCN(C(=O)[C@@H]2CN(c3ccc(=O)n(C)n3)C[C@H]2c2ccc(OC)cc2F)CCC[C@H]1c1ccc(Cl)cc1 ... rule met

---

Target: MC4 receptor (Homo sapiens, UniProt P32245)
Assay: MC4 EC50 functional potency (protocol E of US2005/0176772 / WO 2005/077935)
Protocol: The compounds of formula (I) of the present invention have utility as MCR4 agonists in the treatment of various disease states. MC5 and MC4 EC50 activity was determined as described by assay protocols D and E, respectively, in US2005/0176772 (pages 28-30).
pEC50: −log10 of the molar value.
Listing of entries alongside the reported pEC50.
Reported Metric: pEC50

1. COC(=O)N1CCN(C(=O)[C@@H]2CN(c3ccc4nncn4n3)C[C@H]2c2ccc(F)cc2F)CCC[C@H]1c1ccc(Cl)cc1 [Example 96] ... 9.07
2. COC(=O)N1CCN(C(=O)[C@@H]2CN(c3ccc(=O)n(C)n3)C[C@H]2c2ccc(F)cc2F)CCC[C@@H]1c1ccc(Cl)cc1 [Example 56] ... 8.52
3. COC(=O)N1CCN(C(=O)[C@@H]2CN(c3ccc(=O)n(C)n3)C[C@H]2c2ccc(Cl)cn2)CCC[C@H]1c1ccc(Cl)cc1 [Example 47] ... 8.29
4. COc1ccc([C@@H]2CN(c3ccc(=O)[nH]n3)C[C@H]2C(=O)N2CCC[C@@H](c3ccc(Cl)cc3)N(C(C)=O)CC2)c(F)c1 [Example 68] ... 8.37
5. COC(=O)N1CCN(C(=O)[C@@H]2CN(c3ccc(=O)n(C)n3)C[C@H]2c2ccc(F)cc2F)CCC[C@H]1c1ccc(Cl)cc1 [Example 66] ... 8.52
6. CNC(=O)N1CCN(C(=O)[C@@H]2CN(c3cccnn3)C[C@H]2c2ccc(F)cc2F)CCCC1c1ccccc1 (mixture of isomers) [Example 73] ... 7.91
